- MEASURED ON: human α2β1 integrin on human platelets (human, UniProt P17301 30-1181; P05556 21-798)
- Sequence (P17301 30-1181 limits assumed, chain 1 of 2): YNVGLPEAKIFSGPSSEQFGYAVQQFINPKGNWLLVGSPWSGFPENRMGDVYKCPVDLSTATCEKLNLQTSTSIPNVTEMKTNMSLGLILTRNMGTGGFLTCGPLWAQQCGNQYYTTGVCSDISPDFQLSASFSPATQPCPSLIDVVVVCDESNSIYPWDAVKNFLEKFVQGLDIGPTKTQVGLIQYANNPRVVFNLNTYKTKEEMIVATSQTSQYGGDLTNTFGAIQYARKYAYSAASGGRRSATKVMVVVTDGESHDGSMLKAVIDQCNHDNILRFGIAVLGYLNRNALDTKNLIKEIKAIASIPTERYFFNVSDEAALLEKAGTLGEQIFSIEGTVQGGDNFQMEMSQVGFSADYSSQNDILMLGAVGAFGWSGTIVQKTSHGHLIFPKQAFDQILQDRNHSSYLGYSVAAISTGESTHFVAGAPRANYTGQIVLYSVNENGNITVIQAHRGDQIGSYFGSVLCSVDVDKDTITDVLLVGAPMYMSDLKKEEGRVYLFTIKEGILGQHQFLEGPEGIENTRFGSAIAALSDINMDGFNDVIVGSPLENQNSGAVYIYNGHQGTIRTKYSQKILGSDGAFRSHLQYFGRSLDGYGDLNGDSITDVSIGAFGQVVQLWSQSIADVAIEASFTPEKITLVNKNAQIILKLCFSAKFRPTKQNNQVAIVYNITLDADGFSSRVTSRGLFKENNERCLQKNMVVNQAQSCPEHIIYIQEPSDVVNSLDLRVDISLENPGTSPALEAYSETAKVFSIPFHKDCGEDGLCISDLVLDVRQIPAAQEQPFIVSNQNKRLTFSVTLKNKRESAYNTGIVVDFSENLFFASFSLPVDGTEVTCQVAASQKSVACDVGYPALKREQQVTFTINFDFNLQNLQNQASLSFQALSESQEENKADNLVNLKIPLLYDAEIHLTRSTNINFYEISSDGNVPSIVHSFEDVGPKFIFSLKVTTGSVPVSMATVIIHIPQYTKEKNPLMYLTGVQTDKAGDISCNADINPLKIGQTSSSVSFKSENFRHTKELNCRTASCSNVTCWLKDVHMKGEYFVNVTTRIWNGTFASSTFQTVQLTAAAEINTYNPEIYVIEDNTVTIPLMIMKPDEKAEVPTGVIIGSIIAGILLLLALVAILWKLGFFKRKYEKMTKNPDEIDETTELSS
- Sequence (P05556 21-798 limits assumed, chain 2 of 2): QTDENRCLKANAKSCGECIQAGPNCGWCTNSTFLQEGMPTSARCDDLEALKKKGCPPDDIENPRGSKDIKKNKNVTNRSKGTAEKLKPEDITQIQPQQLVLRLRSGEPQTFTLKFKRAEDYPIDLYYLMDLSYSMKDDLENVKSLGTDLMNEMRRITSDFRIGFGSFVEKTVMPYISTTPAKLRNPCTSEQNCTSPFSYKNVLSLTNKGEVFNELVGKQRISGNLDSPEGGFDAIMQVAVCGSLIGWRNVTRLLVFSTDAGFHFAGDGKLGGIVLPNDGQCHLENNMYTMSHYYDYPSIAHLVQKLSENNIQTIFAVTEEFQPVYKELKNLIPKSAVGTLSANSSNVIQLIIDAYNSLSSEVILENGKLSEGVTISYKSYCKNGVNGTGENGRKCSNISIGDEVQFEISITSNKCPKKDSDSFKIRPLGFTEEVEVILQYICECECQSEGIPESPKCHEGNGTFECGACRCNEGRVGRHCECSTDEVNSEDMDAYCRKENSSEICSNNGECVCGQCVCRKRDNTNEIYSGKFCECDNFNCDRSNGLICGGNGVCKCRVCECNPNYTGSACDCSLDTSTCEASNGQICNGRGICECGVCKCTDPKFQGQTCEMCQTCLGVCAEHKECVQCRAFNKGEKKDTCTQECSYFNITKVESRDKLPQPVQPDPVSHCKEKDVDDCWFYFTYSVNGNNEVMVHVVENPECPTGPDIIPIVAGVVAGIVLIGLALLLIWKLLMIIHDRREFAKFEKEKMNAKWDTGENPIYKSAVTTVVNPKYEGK
- PROCEDURE DETAILS: cell-based or functional assay
Param label: returns yes (1) when Inhibition of binding of platelets to collagen in platelet rich plasma, MW IC50 < 0.3 µg/mL, returns no (0) otherwise, including exact equality.

[
  {
    "BINDER": "humanized anti-α2-integrin mAb LC3/HC4 (antibody, IgG4, V domains shown) VH: QVQLHQPGAELVKPGASVKLSCKASGYTFTSYWMNWVKQRPGRGLEWIGRIDPSDSETHYNQKFKDKATLTVDKSSSTAYIQLSSLTSEDSAKYYCAKVGRGYFDYWGQGTTLTVVS VL: NIVLTQSPSSLSVSVGQRATISCRASESVESYGNSFIYWYQQKPGQAPKLLIYLASNLASGVPARFSGSGSRTDFTLTIDPVQAEDAATYYCQQNNEDPYTFGGGTKLEIK",
    "CLASS": "yes (1)"
  },
  {
    "BINDER": "humanized anti-α2-integrin mAb LC2/HC2 (antibody, IgG4, V domains shown) VH: QVQLHQPGAELVKPGAPVKLSCKASGYTFTSYWMNWVKQRPGQGLEWIGRIDPSESETHYNQKFKDRATLTVDKSSSTAYIQLSSLTSEDSAVYYCAKVGRGYFDYWGQGTTLTVVS VL: NIVLTQSPSSLAVSVGQRATISCRASESVESYGQSFIYWYQQKPGKAPKLLIYLASNLASGVPARFSGSGSRTDFTLTIDPVQADDAATYYCQQNNEDPYTFGGGTKLEIK",
    "CLASS": "no (0)"
  },
  {
    "BINDER": "humanized anti-α2-integrin mAb LC3/HC3 (antibody, IgG4, V domains shown) VH: QVQLHQPGAELVKPGASVKLSCKASGYTFTSYWMNWVKQRPGRGLEWIGRIDPSDSETHYNQKFKDKATLTVDKSSSTAYIQLSSLTSEDSAVYYCAKVGRGYFDYWGQGTTLTVVS VL: NIVLTQSPSSLSVSVGQRATISCRASESVESYGNSFIYWYQQKPGQAPKLLIYLASNLASGVPARFSGSGSRTDFTLTIDPVQAEDAATYYCQQNNEDPYTFGGGTKLEIK",
    "CLASS": "yes (1)"
  },
  {
    "BINDER": "humanized anti-α2-integrin mAb LC4/HC6 (antibody, IgG4, V domains shown) VH: QVQLHQPGAELVKPGASVKLSCKASGYTFTSYWMNWVKQRPGRGLEWIGRIDPSESETHYNQKFKDKATLTVDKSSSTAYIQLSSLTSEDSAKYYCAKVGRGYFDYWGQGTTLTVVS VL: NIVLTQSPSSLSVSVGQRATISCRASESVESYGQSFIYWYQQKPGQAPKLLIYLASNLASGVPARFSGSGSRTDFTLTIDPVQAEDAATYYCQQNNEDPYTFGGGTKLEIK",
    "CLASS": "no (0)"
  },
  {
    "BINDER": "humanized anti-α2-integrin mAb LC1/HC1 (antibody, IgG4, V domains shown) VH: QVQLHQPGAELVKPGAPVKLSCKASGYTFTSYWMNWVKQRPGQGLEWIGRIDPSDSETHYNQKFKDRATLTVDKSSSTAYIQLSSLTSEDSAVYYCAKVGRGYFDYWGQGTTLTVVS VL: NIVLTQSPSSLAVSVGQRATISCRASESVESYGNSFIYWYQQKPGKAPKLLIYLASNLASGVPARFSGSGSRTDFTLTIDPVQADDAATYYCQQNNEDPYTFGGGTKLEIK",
    "CLASS": "yes (1)"
  },
  {
    "BINDER": "humanized anti-α2-integrin mAb LC5/HC7 (antibody, IgG4, V domains shown) VH: QVQLVQSGAEVKKPGASVKVSCKASGYTFTSYWMNWVRQAPGQGLEWIGRIDPSDSETHYAQKFQGRATLTVDKSTSTAYMELSSLRSEDTAVYYCAKVGRGYFDYWGQGTLVTVSS VL: NIVLTQSPASLAVSPGQRATITCRASESVESYGNSFIYWYQQKPGQPPKLLIYLASNLASGVPARFSGSGSRTDFTLTINPVEADDTANYYCQQNNEDPYTFGGGTKLEIK",
    "CLASS": "yes (1)"
  },
  {
    "BINDER": "TMC2206, humanized hIgG4 anti-alpha 2 integrin antibody (comparator) (antibody, V domains shown) VH: QVQLQESGPGLVKPSETLSLTCTVSGFSLTNYGIHWIRQPPGKGLEWLGVIWARGFTNYNSALMSRLTISKDNSKNQVSLKLSSVTAADTAVYYCARANDGVYYAMDYWGQGTLVTVSS VL: DFVMTQSPAFLSVTPGEKVTITCSAQSSVNYIHWYQQKPDQAPKKLIYDTSKLASGVPSRFSGSGSGTDYTFTISSLEAEDAATYYCQQWTTNPLTFGQGTKVEIKR",
    "CLASS": "yes (1)"
  },
  {
    "BINDER": "humanized anti-α2-integrin mAb LC4/HC5 (antibody, IgG4, V domains shown) VH: QVQLHQPGAELVKPGASVKLSCKASGYTFTSYWMNWVKQRPGRGLEWIGRIDPSESETHYNQKFKDKATLTVDKSSSTAYIQLSSLTSEDSAVYYCAKVGRGYFDYWGQGTTLTVVS VL: NIVLTQSPSSLSVSVGQRATISCRASESVESYGQSFIYWYQQKPGQAPKLLIYLASNLASGVPARFSGSGSRTDFTLTIDPVQAEDAATYYCQQNNEDPYTFGGGTKLEIK",
    "CLASS": "no (0)"
  }
]
